SYSTEM_UNDER_TEST: RAR gamma (Homo sapiens, UniProt P13631)
Sequence (P13631 185-419 limits assumed): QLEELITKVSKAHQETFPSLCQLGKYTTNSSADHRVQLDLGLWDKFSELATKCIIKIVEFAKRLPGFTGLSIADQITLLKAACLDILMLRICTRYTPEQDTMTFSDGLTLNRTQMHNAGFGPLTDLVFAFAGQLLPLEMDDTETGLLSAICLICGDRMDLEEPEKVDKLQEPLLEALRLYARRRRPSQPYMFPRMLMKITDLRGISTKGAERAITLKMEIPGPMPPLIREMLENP
ASSAY: Transactivation test (luciferase reporter, HeLa cells), RAR gamma
PARTICULARS: HeLa stable transfectants, reference ligand at the concentration that gives 80% activation
ASSAY_METRIC: IC50 (nM)

Cc1cccc(COc2cc([Se]C#Cc3ccc(C(=O)O)cc3)cc3c2C(C)(C)CCC3(C)C)c1	10
CC1(C)CCC(C)(C)c2c(OCc3ccc(F)cc3)cc([Se]C#Cc3ccc(C(=O)O)cc3)cc21	2.5
CC1(C)CCC(C)(C)c2c(OCc3cccc(F)c3)cc([Se]C#Cc3ccc(C(=O)O)cc3)cc21	5
CC1(C)CCC(C)(C)c2c(OCc3ccc(F)cc3F)cc([Se]C#Cc3ccc(C(=O)O)cc3)cc21	2.5

I = CC(C)(C)c1ccc(COc2cc([Se]C#Cc3ccc(C(=O)O)cc3)cc3c2C(C)(C)CCC3(C)C)cc1
II = CC1(C)CCC(C)(C)c2c(OCc3ccc(F)c(F)c3)cc([Se]C#Cc3ccc(C(=O)O)cc3)cc21
Identify the entry with the larger IC50. Options: I and II API: response body contains the label of the selected item. I
(I: 10 nM, II: 2.5 nM)
